Target: Menin (Homo sapiens, UniProt O00255)
Sequence (O00255 whole entry): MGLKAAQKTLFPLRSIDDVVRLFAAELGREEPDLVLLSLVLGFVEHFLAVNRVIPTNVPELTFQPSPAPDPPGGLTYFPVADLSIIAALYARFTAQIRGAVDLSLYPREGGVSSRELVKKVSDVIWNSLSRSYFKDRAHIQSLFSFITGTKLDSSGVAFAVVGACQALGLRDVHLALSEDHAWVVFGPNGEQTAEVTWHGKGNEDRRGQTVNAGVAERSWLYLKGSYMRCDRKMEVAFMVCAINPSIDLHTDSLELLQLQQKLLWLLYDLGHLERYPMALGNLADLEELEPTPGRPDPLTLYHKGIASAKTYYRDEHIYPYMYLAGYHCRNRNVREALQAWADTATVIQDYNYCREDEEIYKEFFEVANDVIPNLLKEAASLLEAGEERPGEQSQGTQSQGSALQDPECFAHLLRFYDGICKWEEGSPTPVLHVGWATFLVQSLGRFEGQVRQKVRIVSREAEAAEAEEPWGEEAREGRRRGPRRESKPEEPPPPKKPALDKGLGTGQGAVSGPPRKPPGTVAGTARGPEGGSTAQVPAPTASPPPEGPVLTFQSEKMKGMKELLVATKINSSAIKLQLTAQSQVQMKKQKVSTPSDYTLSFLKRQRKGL
measuredParameter: Ki (µM)
One number for each entry, in µM.

Tell me Ki reported for `CC(=O)O[C@@H]1CCC[C@H]1[C@](C#N)(c1ccccc1)C1CCN(CC2CN(c3ccc(C#N)cc3)C2)CC1`
1.1

* * *

Target: Menin (Homo sapiens)
Sequence (O00255 whole entry): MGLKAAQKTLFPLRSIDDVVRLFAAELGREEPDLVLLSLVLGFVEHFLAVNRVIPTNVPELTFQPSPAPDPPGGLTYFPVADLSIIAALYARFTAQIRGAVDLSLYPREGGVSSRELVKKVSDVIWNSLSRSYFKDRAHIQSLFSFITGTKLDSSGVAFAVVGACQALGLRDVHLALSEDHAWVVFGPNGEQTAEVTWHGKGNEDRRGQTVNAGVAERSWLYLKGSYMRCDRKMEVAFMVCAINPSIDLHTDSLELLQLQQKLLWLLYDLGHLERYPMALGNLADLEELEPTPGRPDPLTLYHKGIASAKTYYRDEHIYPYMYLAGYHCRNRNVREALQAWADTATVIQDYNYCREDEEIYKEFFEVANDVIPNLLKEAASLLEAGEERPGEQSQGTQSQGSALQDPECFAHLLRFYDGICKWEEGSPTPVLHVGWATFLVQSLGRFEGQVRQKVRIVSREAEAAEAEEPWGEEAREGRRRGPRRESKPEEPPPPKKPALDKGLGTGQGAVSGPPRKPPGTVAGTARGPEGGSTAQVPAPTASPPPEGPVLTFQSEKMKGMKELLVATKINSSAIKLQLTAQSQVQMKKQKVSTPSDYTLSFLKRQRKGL
measuredParameter: pIC50
Answers are plain numbers, as −log10 of the molar value.

Tell me pIC50 reported for `CC(=O)O[C@@H]1CCC[C@H]1[C@](C#N)(c1ccccc1)C1CCN(CC2CN(c3ccc(C#N)cc3)C2)CC1`
5.46
